Quick reference: z-score of the listed items.
experiment: PSAC antagonists in infected red cells, primary screen, cell-based, P. falciparum Indochina, OD700, 18 h (AID 1157); settings: P. falciparum Indochina infected erythrocytes, osmotic lysis OD700, 18 h; higher = more signal, called active from +8 up or from −8 down
Response field accepts a number only; no unit should be typed.

Here's what some known entries look like.
O=c1n(-c2ccccc2)c(=O)n2n1CC(COc1ccccc1)=C1[C@@H](CCc3ccccc3)OB(O)C[C@@H]12 : -1.31
C=CCN1C(=O)[C@@]2(O[C@@H](CCn3cc(CCO)nn3)[C@H]([Si](C)(C)c3ccc(OC)cc3)[C@H]2C)c2cc(N3C(=O)c4cccc5cccc3c45)ccc21 : 1.5
O=C(NCc1ccccc1)[C@@H]1c2ccccc2C(=O)N(Cc2ccccc2Cl)[C@H]1c1ccc(CO)cc1 : -1.17

Okay, now this compound:
// z-score value for "C=CCN1C(=O)[C@@]2(O[C@@H](CCO)[C@H]([Si](C)(C)c3ccc(OC)cc3)[C@H]2C)c2cc(N3C(=O)c4cccc5cccc3c45)ccc21" : 2.56
